experiment: Luminescence Cell-Based Dose Response HTS to Identify Activators of Luciferase Translation or Activity in H4 […] Cells. [Related pubchem assays: 1829 (Project Summary), 1814 (Primary HTS)]; type: functional
Active and inactive are the calls of the source.
measurement-label: EC50

Below: 5 compounds and their reported EC50.
compound	EC50
O=C1c2ccccc2S(=O)(=O)N1CC1CC(c2ccc(Cl)cc2)=NO1 (configuration not stated)	< 0.1 µM (active)
CCOC(=O)c1sc(NC(=O)C(C)(C)C)cc1C	13 µM (active)
O=C(CN1C(=O)S/C(=C\c2ccc(O)cc2)C1=O)c1ccccc1	6.77 µM (active)
COc1ccc2nc(N3C(=O)C(c4c(O)[nH]c5ccccc45)=NC3=S)sc2c1	34.5 µM (active)
Cc1ccc(-c2ccc(NC(=O)C3C4C=CC(C4)C3C(=O)O)cc2)o1 (configuration not stated)	33.5 µM (active)

Input line: Which EC50 reading was recorded for the compound Brc1ccc(C2=NC(Cc3ccccc3)CO2)cc1 (configuration not stated) ?
Output line: 3.81 µM (active)

Input line: Which EC50 reading was recorded for the compound Cc1nc(S(=O)(=O)N(C)Cc2ccccc2)c(C#N)c(C)c1Cl ?
Output line: 60.4 µM (active)

====

biological target: Glucose-6-phosphate 1-dehydrogenase (Homo sapiens, UniProt P11413); experiment: inhibition of Homo sapiens G6PD, dose series – biochemical, fluorescence, selectivity assay for P. falciparum G6PD inhibitor project, dose response (AID 504792); assay type: functional
The source made the active and inactive calls.
Pick one and only one: active, inactive

query-smiles	target-system	classification
O=C(OCC(=O)c1ccc([N+](=O)[O-])cc1)/C(=C\c1ccc(Cl)cc1)NC(=O)c1ccccc1	Glucose-6-phosphate 1-dehydrogenase (Homo sapiens, UniProt P11413)	inactive

Input line: Lab log entry: O=C1C(Cl)=C(NCCc2ccccc2)C(=O)c2ccccc21 — outcome as called in the assay?
Output line: active

Input line: Lab log entry: O=c1c2cc([N+](=O)[O-])ccc2sn1-c1ccccc1 — outcome as called in the assay?
Output line: active

Input line: Lab log entry: CC1N(C)c2cccc3cccc(c23)N1C — outcome as called in the assay?
Output line: inactive

====

target: Replicative DNA helicase DnaB (Mycobacterium tuberculosis, UniProt P9WMR3); assay: DnaB intein splicing inhibitors, dose response, biochemical, cell-free fluorescence (AID 449749); assay type: functional
The source made the active and inactive calls.
Pick one and only one: active, inactive

compound	classification
CCC(c1nnnn1Cc1ccco1)N(Cc1cc2cc(OC)ccc2nc1O)C1CCCCC1 (stereo not given)	inactive
COc1ccc(N(C(=O)CCl)C(C(=O)NCCc2ccccc2)c2cccs2)cc1 (stereo not given)	active
Cc1ccc2c(c1)c1c(n2CC(O)CN2CCCCCC2)CCCC1 (stereo not given)	inactive
O=C1CCCC(O)=C1C(C#Cc1ccccc1)C1=C(O)CCCC1=O	active
CCCCOc1ccc(C(=O)C(CN2CCOCC2)c2ccccc2)cc1 (stereo not given)	active
NC(=O)[C@H](Cc1cc2ccccc2s1)NC(=O)[C@@H]1CC2(CC(c3cccc(NC(=O)[C@@H]4CCC(=O)N4)c3)=NO2)CN1C(=O)/C=C/c1c(F)cccc1Cl (stereo not given in full)	active
O=C(CCl)Nc1ccccc1C(=O)Nc1ccc2c(c1)OCO2	active
CCn1c(Cl)c(C=O)s/c1=N\S(=O)(=O)c1ccccc1	active

Input line: Lab log entry: O=C(NNC(=O)c1ccc([N+](=O)[O-])o1)c1ccccc1 — outcome as called in the assay?
Output line: active

====

Below: a set of entries, each annotated with reported IC50.
biological target: Eukaryotic translation initiation factor 4E (Mus musculus, UniProt P63073); assay: blockers of eIF4G binding by eIF4E – biochemical, TR-FRET, dose response (AID 855); assay type: functional;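 note: potency for disrupting eIF4E binding to eIF4GI seen as loss of FRET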
Sequence (P63073 whole entry): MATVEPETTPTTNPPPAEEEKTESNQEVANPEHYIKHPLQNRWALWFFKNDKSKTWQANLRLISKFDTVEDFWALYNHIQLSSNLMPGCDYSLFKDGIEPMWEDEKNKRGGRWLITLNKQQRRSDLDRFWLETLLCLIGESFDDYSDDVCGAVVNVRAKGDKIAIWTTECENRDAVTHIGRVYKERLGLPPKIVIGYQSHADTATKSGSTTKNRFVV
Activity calls are given as the source filed them.

Below: 5 compounds and their reported IC50.
compound	measurement-label	recorded-measurement
OCCN1CCN(C(c2cccs2)c2ccc3cccnc3c2O)CC1 (stereo unspecified)	IC50	> 64 µM (inactive)
Cn1cccc1-c1cc(C(=O)N2CCc3c([nH]c4ccccc34)C2c2ccccn2)[nH]n1 (stereo unspecified)	IC50	50 µM (inactive)
C=CCSc1nc(-c2ccc(OC)cc2)c(C#N)c(=O)n1CC=C	IC50	50 µM (inactive)
O=C1CCCC(O)=C1C(C#Cc1ccccc1)C1=C(O)CCCC1=O	IC50	> 64 µM (inactive)
Cc1cc(N2CCCCC2)nc(NCc2ccccc2)n1	IC50	> 64 µM (inactive)

Kindly consider the entry below.
Input line: Which IC50 reading was recorded for the compound COc1ccc2nc(N3C(=O)C(c4c(O)[nH]c5ccccc45)=NC3=S)sc2c1 ?
Output line: > 64 µM (inactive)

====

target: Peroxisome proliferator-activated receptor gamma/Nuclear receptor coactivator 2 (Homo sapiens, UniProt P37231); assay: TR-FRET dose response biochemical High Throughput Screening assay for agonists of the steroid receptor coactivator 2 (SRC-2) recruitment by the peroxisome proliferator-activated receptor gamma (PPAR gamma): non-selective agonists. [Related pubchem assays: 1297, 1032 ]; type: functional
Sequence (Q15596 whole entry, one chain of several, further chain): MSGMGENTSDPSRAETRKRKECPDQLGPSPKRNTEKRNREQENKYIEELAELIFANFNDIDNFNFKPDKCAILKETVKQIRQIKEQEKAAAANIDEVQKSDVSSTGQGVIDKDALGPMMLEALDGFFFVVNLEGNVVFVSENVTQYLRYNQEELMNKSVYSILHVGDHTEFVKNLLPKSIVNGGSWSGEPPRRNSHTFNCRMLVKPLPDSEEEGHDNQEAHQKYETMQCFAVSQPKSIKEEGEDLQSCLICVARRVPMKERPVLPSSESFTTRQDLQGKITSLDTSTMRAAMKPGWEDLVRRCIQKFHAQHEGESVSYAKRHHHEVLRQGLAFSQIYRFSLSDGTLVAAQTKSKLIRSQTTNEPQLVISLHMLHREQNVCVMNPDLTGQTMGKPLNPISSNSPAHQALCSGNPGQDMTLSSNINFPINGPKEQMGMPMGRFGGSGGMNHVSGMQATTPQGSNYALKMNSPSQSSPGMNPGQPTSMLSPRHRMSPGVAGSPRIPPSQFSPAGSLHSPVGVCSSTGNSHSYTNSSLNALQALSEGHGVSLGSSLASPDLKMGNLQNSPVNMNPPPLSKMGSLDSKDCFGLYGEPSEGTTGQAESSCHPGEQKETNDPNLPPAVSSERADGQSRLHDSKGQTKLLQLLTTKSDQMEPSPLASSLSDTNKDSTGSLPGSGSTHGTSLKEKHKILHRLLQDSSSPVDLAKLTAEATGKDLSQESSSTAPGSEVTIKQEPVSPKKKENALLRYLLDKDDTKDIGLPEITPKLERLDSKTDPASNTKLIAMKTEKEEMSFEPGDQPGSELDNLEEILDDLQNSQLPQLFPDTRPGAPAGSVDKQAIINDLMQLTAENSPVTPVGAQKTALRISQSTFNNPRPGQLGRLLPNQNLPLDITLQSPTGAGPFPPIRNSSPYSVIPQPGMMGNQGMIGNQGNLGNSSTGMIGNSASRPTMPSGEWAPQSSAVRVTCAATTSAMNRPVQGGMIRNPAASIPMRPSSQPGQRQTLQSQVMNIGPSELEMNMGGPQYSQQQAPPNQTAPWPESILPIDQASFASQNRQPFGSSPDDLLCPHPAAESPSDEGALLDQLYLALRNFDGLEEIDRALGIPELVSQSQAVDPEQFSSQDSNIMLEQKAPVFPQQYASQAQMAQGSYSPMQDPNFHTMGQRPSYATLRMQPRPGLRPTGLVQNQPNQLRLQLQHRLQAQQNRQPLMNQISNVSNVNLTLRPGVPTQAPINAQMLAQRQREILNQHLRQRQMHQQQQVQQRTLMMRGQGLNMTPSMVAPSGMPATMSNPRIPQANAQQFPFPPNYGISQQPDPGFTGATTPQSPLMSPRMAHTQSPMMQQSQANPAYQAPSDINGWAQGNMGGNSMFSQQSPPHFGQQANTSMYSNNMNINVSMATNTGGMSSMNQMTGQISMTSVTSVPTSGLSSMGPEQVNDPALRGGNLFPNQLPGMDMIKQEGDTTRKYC
Active and inactive are the calls of the source.
measurement-label: EC50

Below: 3 compounds and their reported EC50.
query-smiles	EC50
CCOC(=O)C1CCN(C(=O)CSc2cc(=O)n(C)c3ccccc23)CC1	> 79.4 µM (not active)
Cc1ccc(Sc2ccc(NC(=O)c3ccc(S(C)(=O)=O)cc3Cl)cc2)cc1	5.64 µM (active)
O=c1oc2cc(O)ccc2c2ccccc12	> 79.4 µM (not active)

Kindly consider the entry below.
Input line: Which EC50 reading was recorded for the compound Cn1c(=O)cc(SCC(=O)NCCCN2CCN(c3ccc(F)cc3)CC2)c2ccccc21 ?
Output line: > 26.5 µM (not active)

====

biological target: Tyrosine-protein phosphatase non-receptor type 11 (Homo sapiens); test: PTPN11 enzyme inhibitors – biochemical, selectivity assay for STEP inhibitor project, dose response (AID 602367); format: functional; conditions: read-out: IC50_Mean
Sequence (Q06124 whole entry): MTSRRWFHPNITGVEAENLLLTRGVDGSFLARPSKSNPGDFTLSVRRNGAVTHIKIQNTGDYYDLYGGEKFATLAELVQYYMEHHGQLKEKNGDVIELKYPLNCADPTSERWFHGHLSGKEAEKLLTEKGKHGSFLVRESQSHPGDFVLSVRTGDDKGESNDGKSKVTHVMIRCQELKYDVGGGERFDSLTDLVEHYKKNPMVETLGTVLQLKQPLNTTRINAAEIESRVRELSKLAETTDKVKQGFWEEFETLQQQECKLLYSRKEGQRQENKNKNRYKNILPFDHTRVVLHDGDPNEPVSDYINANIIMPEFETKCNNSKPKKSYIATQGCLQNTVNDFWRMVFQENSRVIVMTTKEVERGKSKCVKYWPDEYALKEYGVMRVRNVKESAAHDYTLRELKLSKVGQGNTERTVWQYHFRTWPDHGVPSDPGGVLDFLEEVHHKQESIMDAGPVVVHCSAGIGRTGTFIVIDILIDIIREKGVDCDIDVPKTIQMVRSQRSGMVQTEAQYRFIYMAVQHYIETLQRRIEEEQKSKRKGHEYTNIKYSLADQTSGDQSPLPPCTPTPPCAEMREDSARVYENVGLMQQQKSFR
The source made the active and inactive calls.
measurement-label: IC50

Below: 3 compounds and their reported IC50.
query-smiles	target-system	recorded-measurement
CC(=O)N1CCC(N(CCN2CCOCC2)C(=S)Nc2ccc(C)cc2)CC1	Tyrosine-protein phosphatase non-receptor type 11 (Homo sapiens)	17900 nM (active)
Cc1ccc(-n2c(C)nc3oc4ccccc4c(=O)c3c2=O)cc1	Tyrosine-protein phosphatase non-receptor type 11 (Homo sapiens)	1130 nM (active)
CCOc1ccc(C(=S)N2CCN(C)CC2)cc1	Tyrosine-protein phosphatase non-receptor type 11 (Homo sapiens)	3900 nM (active)

Kindly consider the entry below.
Input line: Which IC50 reading was recorded for the compound COc1ccccc1NS(=O)(=O)c1cc(NC(=O)c2sccc2C)ccc1N1CCCC1 ?
Output line: 665 nM (active)

====

Below: a set of entries, each annotated with reported EC50.
biological target: Peroxisome proliferator-activated receptor gamma/Nuclear receptor coactivator 3 (Homo sapiens); experiment: TR-FRET dose response biochemical High Throughput Screening assay for agonists of the steroid receptor coactivator 3 (SRC-3) recruitment by the peroxisome proliferator-activated receptor gamma (PPAR gamma): non-selective agonists. [Related pubchem assays: 1301 (Confirmation screen.), 1048 (Primary screen.)]; type: functional
Sequence (P37231 whole entry): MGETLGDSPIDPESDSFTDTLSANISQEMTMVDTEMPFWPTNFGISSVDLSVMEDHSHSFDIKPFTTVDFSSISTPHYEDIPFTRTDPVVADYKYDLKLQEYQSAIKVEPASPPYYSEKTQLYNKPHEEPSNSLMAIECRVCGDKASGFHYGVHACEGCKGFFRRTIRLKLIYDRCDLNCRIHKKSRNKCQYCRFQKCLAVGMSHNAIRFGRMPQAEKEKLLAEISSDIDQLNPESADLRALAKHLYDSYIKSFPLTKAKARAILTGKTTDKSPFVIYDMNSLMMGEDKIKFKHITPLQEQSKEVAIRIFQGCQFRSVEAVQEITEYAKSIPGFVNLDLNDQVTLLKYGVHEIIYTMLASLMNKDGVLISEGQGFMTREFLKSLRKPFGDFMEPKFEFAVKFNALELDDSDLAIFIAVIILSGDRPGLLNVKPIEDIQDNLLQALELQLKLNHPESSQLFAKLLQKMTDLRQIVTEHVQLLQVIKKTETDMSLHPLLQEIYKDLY
Sequence (Q9Y6Q9 whole entry, further chain): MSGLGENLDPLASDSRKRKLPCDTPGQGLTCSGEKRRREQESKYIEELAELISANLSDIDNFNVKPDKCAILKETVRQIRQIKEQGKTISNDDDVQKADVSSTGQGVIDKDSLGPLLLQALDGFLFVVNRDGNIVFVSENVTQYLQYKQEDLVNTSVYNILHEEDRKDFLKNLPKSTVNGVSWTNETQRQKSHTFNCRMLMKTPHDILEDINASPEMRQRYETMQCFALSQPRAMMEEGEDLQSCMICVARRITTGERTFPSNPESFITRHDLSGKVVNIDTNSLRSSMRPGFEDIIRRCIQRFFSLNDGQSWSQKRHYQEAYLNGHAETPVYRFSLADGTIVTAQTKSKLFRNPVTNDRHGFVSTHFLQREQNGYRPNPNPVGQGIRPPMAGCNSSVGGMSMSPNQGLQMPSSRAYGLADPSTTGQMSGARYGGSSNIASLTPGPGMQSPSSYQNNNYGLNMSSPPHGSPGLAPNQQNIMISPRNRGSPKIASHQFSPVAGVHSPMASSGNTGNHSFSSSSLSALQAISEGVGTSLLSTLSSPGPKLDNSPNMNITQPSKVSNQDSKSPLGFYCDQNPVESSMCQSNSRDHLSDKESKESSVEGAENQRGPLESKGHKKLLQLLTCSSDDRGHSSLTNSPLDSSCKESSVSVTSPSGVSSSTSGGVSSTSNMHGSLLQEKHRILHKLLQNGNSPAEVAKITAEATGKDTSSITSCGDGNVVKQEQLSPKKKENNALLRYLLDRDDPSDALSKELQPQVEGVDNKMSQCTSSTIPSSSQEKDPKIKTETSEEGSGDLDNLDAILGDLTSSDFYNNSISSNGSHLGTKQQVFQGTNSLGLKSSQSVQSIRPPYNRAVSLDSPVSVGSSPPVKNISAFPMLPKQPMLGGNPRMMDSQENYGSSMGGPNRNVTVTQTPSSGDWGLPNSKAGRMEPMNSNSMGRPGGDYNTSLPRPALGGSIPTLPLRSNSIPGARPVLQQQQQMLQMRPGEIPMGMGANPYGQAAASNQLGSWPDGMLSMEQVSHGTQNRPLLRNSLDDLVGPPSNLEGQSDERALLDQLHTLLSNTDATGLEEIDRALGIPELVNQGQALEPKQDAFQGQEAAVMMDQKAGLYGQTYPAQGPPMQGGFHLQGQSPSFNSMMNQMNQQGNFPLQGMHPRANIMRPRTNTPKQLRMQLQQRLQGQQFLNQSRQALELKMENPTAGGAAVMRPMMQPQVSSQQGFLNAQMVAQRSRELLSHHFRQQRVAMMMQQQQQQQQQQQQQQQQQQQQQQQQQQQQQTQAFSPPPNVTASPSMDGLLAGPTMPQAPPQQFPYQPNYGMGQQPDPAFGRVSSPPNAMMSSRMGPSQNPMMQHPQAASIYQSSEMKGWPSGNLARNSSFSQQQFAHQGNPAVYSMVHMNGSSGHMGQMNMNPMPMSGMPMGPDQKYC

Below: 2 compounds and their reported EC50.
query-smiles	EC50
Cn1c(=O)cc(SCC(=O)NCCCN2CCN(c3ccc(F)cc3)CC2)c2ccccc21	> 79.4 µM (not active)
O=c1oc2cc(O)ccc2c2ccccc12	> 79.4 µM (not active)

Input line: Which EC50 reading was recorded for the compound Cc1ccc(Sc2ccc(NC(=O)c3ccc(S(C)(=O)=O)cc3Cl)cc2)cc1 ?
Output line: > 8.82 µM (not active)

Input line: Which EC50 reading was recorded for the compound CCOC(=O)C1CCN(C(=O)CSc2cc(=O)n(C)c3ccccc23)CC1 ?
Output line: > 79.4 µM (not active)

====

molecular target: Corticotropin-releasing factor receptor 2/Corticotropin-releasing factor-binding protein (Homo sapiens, UniProt P24387+Q13324); assay: activators of CRF receptor 2 with binding protein – uHTS hits, confirmation (AID 602473); format: functional; conditions: read-out: EC50_Mean
Sequence (Q13324 whole entry): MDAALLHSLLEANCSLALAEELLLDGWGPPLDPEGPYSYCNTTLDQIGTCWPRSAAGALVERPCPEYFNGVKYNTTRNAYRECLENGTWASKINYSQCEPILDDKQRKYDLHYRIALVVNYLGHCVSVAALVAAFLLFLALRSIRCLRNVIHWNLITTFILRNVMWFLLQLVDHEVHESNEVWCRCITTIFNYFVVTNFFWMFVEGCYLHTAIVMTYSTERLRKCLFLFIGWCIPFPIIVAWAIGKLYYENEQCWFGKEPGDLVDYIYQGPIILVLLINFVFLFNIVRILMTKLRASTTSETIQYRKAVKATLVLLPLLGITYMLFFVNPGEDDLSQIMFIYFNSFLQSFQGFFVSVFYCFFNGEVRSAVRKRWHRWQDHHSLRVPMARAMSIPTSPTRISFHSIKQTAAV
Sequence (P24387 whole entry): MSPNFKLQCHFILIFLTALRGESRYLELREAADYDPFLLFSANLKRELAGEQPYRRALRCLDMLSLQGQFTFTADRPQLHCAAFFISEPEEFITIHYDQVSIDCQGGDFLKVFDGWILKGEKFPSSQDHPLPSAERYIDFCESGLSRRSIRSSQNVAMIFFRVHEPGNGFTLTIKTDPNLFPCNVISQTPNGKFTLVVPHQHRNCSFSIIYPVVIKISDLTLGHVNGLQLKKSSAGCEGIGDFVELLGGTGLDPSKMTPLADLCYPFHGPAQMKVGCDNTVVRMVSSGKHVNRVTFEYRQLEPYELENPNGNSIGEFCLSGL
The source made the active and inactive calls.
Pick one and only one: active, inactive

Examples from the recorded data:
molecule	classification
CC(=O)c1ccc(N2CCN(C(=O)c3cccc(Oc4ccccc4)c3)CC2)cc1	inactive
Cc1cc(C)n(C(=O)CNC(=O)c2ccccc2Br)n1	inactive
O=C(CCCc1ccccc1)N1CCN(c2ccc([N+](=O)[O-])cc2)CC1	inactive

Input line: Lab log entry: CC#CCCCC(=O)Nc1ccccc1C(=O)O — outcome as called in the assay?
Output line: inactive

Input line: Lab log entry: CCCCN(c1ccc(C(=O)OC)cc1)S(=O)(=O)c1ccccc1 — outcome as called in the assay?
Output line: inactive

Input line: Lab log entry: COC(=O)C(NC(=O)c1ccc(F)cc1)(Nc1ncc(S(=O)(=O)c2ccc([N+](=O)[O-])cc2)s1)C(F)(F)F (configuration not stated) — outcome as called in the assay?
Output line: inactive

====

test system: Streptococcus; experiment: GAS UMAA2166 growth inhibition – luminescence, BacTiterGlo, counter-screen for streptokinase expression inhibitor project, dose response (AID 1915); type: functional, organism-based;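 note: potency for reduction of bacterial viability or growth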
Calls of active or inactive are those of the source.
measurement-label: EC50

Below: 3 compounds and their reported EC50.
compound	measurement-label	recorded-measurement
C=CCn1c(COc2ccccc2)nnc1SCC(=O)N/N=C/c1cc(Cl)ccc1O	EC50	48.1 µM (active)
C/C(CC(=O)Nc1ccc(Cl)c(C(F)(F)F)c1)=N\NC(=O)c1ccccc1O	EC50	3.68 µM (active)
CCOC(=O)c1c(NS(=O)(=O)c2ccc(Br)cc2)sc2c1CCC2	EC50	4.07 µM (active)

Input line: Which EC50 reading was recorded for the compound Cc1ccc(C(=O)NNC(=S)NC(=O)c2ccco2)cc1 ?
Output line: 8.89 µM (active)

Input line: Which EC50 reading was recorded for the compound COc1ccc(C(NC(C)=O)c2cc(Cl)c3cccnc3c2O)cc1OC (stereo not given) ?
Output line: 3.67 µM (active)
